Test: binders from COS7 lysate, DM2A8 probe, primary screen, torsin A project, cell lysate, small-molecule microarray, fluorescence 635/667 (AID 1065)
Conditions: higher = more signal, COS7 lysate expressing mutant human TOR1A
Please go through the items and note down their composite z-score.
One number for each entry.

| smiles.notation | composite z-score |
| --- | --- |
| NC(=O)NCC#Cc1ccc2c(c1)[C@]1(C(=O)N2)[C@H](c2ccccc2OCCO)N2[C@H](c3ccccc3)[C@H](c3ccccc3)OC(=O)[C@H]2[C@@H]1C(=O)N1CCCCCCC1 | 1.38 |
| [N-]=[N+]=NCc1ccccc1[C@@H]1OC(c2ccc(OCCCO)cc2)=N[C@]1(Cc1ccccc1)C(=O)O | 0.163 |
| COc1ccccc1CN1C(=O)c2ccccc2[C@](Cc2ccccc2I)(C(=O)NCc2ccccc2)[C@@H]1c1ccc(CO)cc1 | 1.33 |

--- query ---
Prompt: I have this molecule here, C=C(C(=O)CC[C@H](OC(=O)c1cccnc1)c1ccccc1OCCO)C(C)C , and I need its recorded composite z-score.
Completion: 1.78

* * *

Assay: probe aLAP1 signal on lysate-treated microarray – cell lysate, small-molecule microarray, COS7 lysate, primary screen (AID 1124);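 note: lysate comes from COS7 cells expressing LAP1 and is applied at 0.3 µg/mL; score merges spot fluorescence near 667 nm with signal-to-noise over triplicate slides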
Conditions: probe aLAP1, fluorescence, higher = more signal
attribute.measured: composite z-score
Give bare numbers.

| compound | composite z-score |
| --- | --- |
| C=CCN1C(=O)[C@@]2(O[C@@H](CCO)[C@H]([Si](C)(C)c3ccc(OC)cc3)[C@H]2C)c2cc(NC(C)=O)ccc21 | 0.423 |
| CC(C)NC(=O)[C@@H]1c2ccccc2C(=O)N(C2CCCCC2)[C@H]1c1ccc(CO)cc1 | -0.0044 |

Each of the following entries comes with a recorded value; kindly state composite z-score for each.
1. CC(C)(C)OC(=O)CC[C@@]1(C(=O)NCC(O)CO)N=C(c2ccc(OCCCO)cc2)O[C@@H]1c1ccccc1 (some centres not stated)
2. O=C(NCc1ccccc1)[C@@H]1c2ccccc2C(=O)N(Cc2cc(F)cc(C(F)(F)F)c2)[C@H]1c1ccc(CO)cc1
3. C=C(CCCC)/C(=C/C[C@H](OC(C)=O)c1ccc(CO)o1)c1cc(C(=O)OC)ccc1OC
4. O=C1C2C=CC(C(O)c3ccc(Br)cc3)N(n3cnnc3)C2C(=O)N1Cc1ccccc1 (configuration not stated)

Completion:
1.34
0.662
0.53
0.448

# batch size: 6; output composite z-score per entry
1. COc1ccc([Si](C)(C)[C@@H]2[C@@H](CC(=O)N3Cc4ccccc4C[C@H]3CO)O[C@]3(C(=O)N(Cc4cccc(N5C(=O)COc6ccccc65)c4)c4ccccc43)[C@H]2C)cc1
2. O=C1OCC=C[C@H]2OC34C=CCN(Cc5ccccc5)C(=O)[C@H]3N(CCCO)C(=O)[C@@H]4[C@@H]12 (some centres not stated)
3. O=C1O[C@@H](c2ccccc2)[C@@H](c2ccccc2)N2[C@@H](c3ccccc3OCCO)[C@]3(C(=O)Nc4ccc(C#CC5(O)CCCCCC5)cc43)[C@@H](C(=O)NC[C@H](O)c3ccccc3)[C@H]12
4. COc1ccc(C#Cc2ccc3c(c2)[C@]2(C(=O)N3)[C@H](C(=O)N3CCc4cc(OC)c(OC)cc4C3)[C@H]3C(=O)O[C@H](c4ccccc4)[C@H](c4ccccc4)N3[C@@H]2c2ccc(OCCO)cc2)cc1
5. CO[C@H]1O[C@H](CO)[C@@H](OC(=O)Nc2ccc3c(c2)OCO3)[C@H](OC(=O)Nc2ccc3c(c2)OCO3)[C@H]1OC(=O)Nc1ccc2c(c1)OCO2
6. C=CCNC(=O)[C@@H]1[C@H]2C(=O)O[C@H](c3ccccc3)[C@H](c3ccccc3)N2[C@H](c2ccccc2OCCO)[C@@]12C(=O)N(C(=O)OCCOC)c1ccc(C#CCC(C(=O)OC)C(=O)OC)cc12

Completion:
1. 0.344
2. 1.08
3. 0.146
4. 0.351
5. 0.804
6. 1.33

I'm hoping you can list composite z-score for every compound here, please.
1. CCN(CC)c1ccc(N2CC=CC34O[C@@H]5C=CCCOC(=O)C5[C@H]3C(=O)N(CCCO)[C@@H]4C2=O)cc1 (some centres not stated)
2. O=[N+]([O-])c1ccc(C[n+]2ccc(CCCO)cc2)o1
3. CCOC(=O)C[C@H]1[C@H](OC(=O)c2cc3ccccc3oc2=O)[C@@H](NC(=O)c2ccc3ccccc3c2)c2cc(OCCCO)ccc2N1C(=O)c1ccccc1
4. NC(=O)NCC#Cc1ccc2c(c1)[C@]1(C(=O)N2)[C@H](c2ccccc2OCCO)N2[C@H](c3ccccc3)[C@H](c3ccccc3)OC(=O)[C@H]2[C@@H]1C(=O)N1CCCCCCC1

Completion:
-0.332
0.313
0.334
1.86

Prompt: Entry under review: COCCOC(=O)N1C(=O)[C@@]2(c3cc(C#Cc4ccc(OC)cc4)ccc31)[C@H](c1ccc(O)cc1)N1[C@H](c3ccccc3)[C@H](c3ccccc3)OC(=O)[C@H]1[C@@H]2C(=O)N1CCN(c2ncccn2)CC1 . Reported composite z-score?
Completion: 0.406

* * *

Experiment: optical density shifts of acrAB sulA E. coli – strain DRC41, OD650, 48 h, E. coli filamentation inducer project, primary screen (AID 1152);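 note: E. coli MC1000 strain DRC41 lacking acrAB efflux pump and sulA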
Conditions: higher = more signal, called active from +8 up or from −8 down
Output met for z-score not less than 0.7; output not met otherwise.

| compound | category.label |
| --- | --- |
| C=CCN1C(=O)[C@@]2(O[C@@H](CCO)[C@H]([Si](C)(C)c3ccc(OC)cc3)[C@H]2C)c2cc(NC(C)=O)ccc21 | not met |
| [N-]=[N+]=NCc1ccccc1[C@H]1OC(c2ccc(OCCCO)cc2)=N[C@@]1(Cc1ccccc1)C(=O)O | not met |
| C=CCN1Cc2ccccc2C[C@@]2(COC(c3ccc(OCCCO)cc3)=N2)C1=O | met |

Prompt: Does z-score meet or surpass 0.7 for C/C=C/[C@H](CCn1cc([C@H](O)c2ccccc2)nn1)[Si](C)(C)c1ccc(OC)cc1 ?
Completion: not met

Prompt: Determine whether measured z-score meets or exceeds 0.7 for O=C1O[C@@H](c2ccccc2)[C@@H](c2ccccc2)N2[C@@H](c3ccc(O)cc3)[C@]3(C(=O)Nc4ccc(C#CCCO)cc43)[C@@H](C(=O)N3CCCCCCC3)[C@H]12
Completion: not met

Prompt: Quick check, z-score >= 0.7? Cc1ccc(S[C@]2(C(=O)NCCCN(C)C)CC(=O)N(C(C)C)[C@@H]2c2ccc(CO)cc2I)cc1
Completion: met

Prompt: Reported z-score reaches at least 0.7 for O=C1OCC=C[C@H]2OC34C=CCN(c5ccc(Cl)cc5)C(=O)[C@H]3N(CCCO)C(=O)[C@@H]4[C@@H]12 (stereo partly drawn) ?
Completion: not met

Prompt: Quick check: does C=C(COC)C(=O)CC[C@@H](OC(=O)c1ccccc1-c1ccccc1C(=O)O)c1ccc(CO)o1 have z-score greater than or equal to 0.7?
Completion: not met

* * *

Please go through the items and note down their z-score.
Experiment: calcein-AM signal in unstimulated myeloma cells – cell-based, calcein-AM fluorescence, 48 h, PK04 Diversity Set, profiling panel (AID 1166);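 note: cells grown under basal conditions without added stimulus; test concentration not given here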
Conditions: RPMI8226 myeloma viability, higher = more signal
Answers are plain numbers.

Please review the entries below; each comes with its answer.
| molecule | z-score |
| --- | --- |
| O=C1OCCC/C=C\[C@H]2OC34C=CCN(Cn5nnc6ccccc65)C(=O)[C@H]3N(CCCO)C(=O)[C@@H]4C12 (stereo partly specified) | -0.284 |
| COCCCNC(=O)[C@@]1(Cc2ccccc2I)c2ccccc2C(=O)N(Cc2ccccc2)[C@H]1c1ccc(CO)cc1 | -1.25 |
| COCC1C2CC[C@H]3C(OCc4ccc(F)cc4C(F)(F)F)OC[C@]4(C)[C@H]3C2=C(CN4C(=O)OC(C)(C)C)[C@H](C)C1COC (stereo partly specified) | -3.14 |
| COc1ccc([Si](C)(C)[C@@H]2[C@@H](CCO)O[C@]3(C(=O)N(Cc4cccc(N5CCCCC5=O)c4)c4ccccc43)[C@H]2C)cc1 | -1.65 |
| O=C1C[C@@](C(=O)O)(c2ccc([N+](=O)[O-])cc2)[C@@H](c2ccc(CO)cc2I)N1C1CCCCC1 | -3.61 |
| COc1ccc(C#Cc2ccc3c(c2)[C@]2(C(=O)N3)[C@H](c3ccc(OCCO)cc3)N3[C@H](c4ccccc4)[C@H](c4ccccc4)OC(=O)[C@H]3[C@@H]2C(=O)Nc2nc3ccccc3s2)cc1 | -1.37 |

List the reported z-score of each molecule below.
1. CN(C)CCCC[C@@H]1NC(=O)[C@H]2C[C@@H](C(=O)NCCCCCNC(=O)CS)[C@@H](c3ccc(O)cc3)N2C1=O
2. C=C(CCCC)C(=O)CC[C@@H](OC(=O)c1ccccc1-c1ccccc1C(=O)O)c1ccc(CO)o1
3. CN(C)CCCC[C@@H]1NC(=O)[C@@H]2C[C@H](C(=O)NCCCCCN)[C@H](c3ccc(O)cc3)N2C1=O
4. COCCOC(=O)N1C(=O)[C@@]2(c3ccccc31)[C@H](c1ccc(O)cc1)N1[C@H](c3ccccc3)[C@H](c3ccccc3)OC(=O)[C@H]1[C@@H]2C(N)=O

Completion:
-0.285
-0.91
-0.115
0.395

Quick batch: z-score for everything below.
1. COC(=O)[C@@]1(Cc2ccc(OC)cc2)[C@H]2c3cc(C(=O)N4CCCC4)n(C[C@H](O)CO)c3C[C@H]2CN1C(=O)c1ccccc1
2. COCCOC(=O)N1C(=O)[C@@]2(c3cc(C#CC4=CCCCC4)ccc31)[C@H](C(=O)N1CCN(c3ncccn3)CC1)[C@H]1C(=O)O[C@H](c3ccccc3)[C@H](c3ccccc3)N1[C@@H]2c1ccc(OCCO)cc1
3. CC(C)C(CO)N1C(=O)[C@@H]2[C@H]3C(=O)OCC=C[C@H]3OC23C=CCN(c2ccc4ccccc4c2)C(=O)[C@@H]13 (stereo partly specified)
4. COc1cc2c(cc1O)C(c1ccc(CN3CCCC3)cc1)N(Cc1sc3ccccc3c1Cl)CC2 (stereo unspecified)
5. CC(C)(C)OC(=O)CC[C@@]1(C(=O)N2CCOCC2)N=C(c2ccc(OCCCO)cc2)O[C@@H]1c1ccccc1N=[N+]=[N-]
6. [N-]=[N+]=NCc1ccccc1[C@@H]1OC(c2ccc(OCCCO)cc2)=N[C@]1(Cc1ccccc1)C(=O)O

Completion:
[0.197, -0.812, -1.02, -1.24, 0.338, -0.767]
